Data provenance: PubChem BioAssay AID1159580

measurement-protocol: chemical genetic growth profiling, strain panel (AID 1159580);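 note: tested at 20 µM; growth read once vehicle control cultures reached saturation at 30 °C; 1 = growth at the plate median or of vehicle wells; lower values mean less growth of the strain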
assay-setup: S. cerevisiae deletion strains, growth OD, locus YDL040C, strain nat1, hits give low values
Screen size: about 5,500 compounds; about 2,000 (36%) were called active. Inconclusive results (about 18%) are left out. The list shows a part of the results.
measured-quantity: normalized growth

compound=COC(=O)/C=C/C(C)=C/C=C/C(C)=C/C=C/C=C(C)/C=C/C=C(C)/C=C/C(=O)O numeric_result=1.01
compound="CN(C)CCCC1(c2ccc(F)cc2)OCc2cc(C#N)ccc21 (stereo not given)" numeric_result=0.985
compound="CC[C@@H](C(=O)C(C)[C@@H](O)[C@H](C)CCc1ccc(C)c(O)c1C(=O)O)C1OC(CC)(C2CC[C@](O)(CC)[C@H](C)O2)C[C@@H]1C (stereo not given in full)" numeric_result=1.06
compound=COc1cc(CNC(=O)CCCC/C=C/C(C)C)ccc1O numeric_result=0.997
compound=Cc1ncc(CNC(=O)N(CCCl)N=O)c(N)n1 numeric_result=1.02
compound=C#CCN(C)Cc1ccccc1 numeric_result=1.02
compound=c1ccc2c(c1)sc1ccccc12 numeric_result=0.942
compound="OCC(O)CN1CCN(c2ccccc2)CC1 (stereo not given)" numeric_result=0.979
compound=COc1ccc2c(c1)OC/C(=C/c1ccc(OC)c(OC)c1)C2=O numeric_result=0.974
compound=NS(=O)(=O)c1cc2c(cc1Cl)NC=NS2(=O)=O numeric_result=1
compound="CNCCC(Oc1ccc(C(F)(F)F)cc1)c1ccccc1 (stereo not given)" numeric_result=0.985
compound="CC1COc2c(N3CCN(C)CC3)c(F)cc3c(=O)c(C(=O)O)cn1c23 (stereo not given)" numeric_result=0.988
compound=CNC(=O)O/N=C(\C)SC numeric_result=0.999
compound="CC(C)NCC(O)COc1cccc2[nH]ccc12 (stereo not given)" numeric_result=0.986
compound=CCCCCCCCC(=O)NCc1ccc(O)c(OC)c1 numeric_result=1
compound=CCN(CC)Cc1ccc(Nc2ccnc3cc(Cl)ccc23)cc1O numeric_result=1
compound=Cc1ccc(C(=O)Nc2ccc(S(=O)(=O)O)c3cc(S(=O)(=O)O)cc(S(=O)(=O)O)c23)cc1NC(=O)c1cccc(NC(=O)Nc2cccc(C(=O)Nc3cc(C(=O)Nc4ccc(S(=O)(=O)O)c5cc(S(=O)(=O)O)cc(S(=O)(=O)O)c45)ccc3C)c2)c1 numeric_result=1.01
compound="COc1ccc(C2CNC(=O)C2)cc1OC1CCCC1 (stereo not given)" numeric_result=1.01
compound="CC[C@]1(O)CC2CN(CCc3c([nH]c4ccccc34)[C@@](C(=O)OC)(c3cc4c(cc3OC)N(C)[C@H]3[C@@](O)(C(=O)OC)[C@H](OC(C)=O)[C@]5(CC)C=CCN6CC[C@]43[C@@H]65)C2)C1 (stereo not given in full)" numeric_result=0.969
compound=CCC[C@H](N[C@@H](C)C(=O)N1[C@H](C(=O)O)C[C@@H]2CCCC[C@@H]21)C(=O)OCC numeric_result=1.01
